- measured on: Serine/threonine-protein phosphatase 5 (Homo sapiens) (UniProt P53041)
- Sequence (P53041 whole entry, looked up): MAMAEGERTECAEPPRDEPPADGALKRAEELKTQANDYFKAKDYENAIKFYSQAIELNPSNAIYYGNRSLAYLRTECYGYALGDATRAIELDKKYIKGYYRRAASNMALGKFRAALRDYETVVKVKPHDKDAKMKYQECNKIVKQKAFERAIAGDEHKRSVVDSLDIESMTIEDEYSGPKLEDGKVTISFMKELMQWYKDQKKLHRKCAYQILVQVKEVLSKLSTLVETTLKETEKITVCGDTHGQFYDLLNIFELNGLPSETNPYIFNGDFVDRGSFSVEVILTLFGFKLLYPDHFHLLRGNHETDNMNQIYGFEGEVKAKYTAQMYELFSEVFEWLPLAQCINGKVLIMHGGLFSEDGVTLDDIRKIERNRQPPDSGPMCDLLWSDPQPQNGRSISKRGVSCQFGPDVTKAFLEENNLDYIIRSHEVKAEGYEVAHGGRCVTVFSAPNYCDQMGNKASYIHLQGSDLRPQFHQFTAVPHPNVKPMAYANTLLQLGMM
- test method notes: PP5 phosphatase inhibitors, primary screen, biochemical, fluorescence (AID 1987);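 note: 0% = DMSO only and 100% = 100 µM cantharidin control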
- condition description: purified PP5c, OMFP substrate fluorescence; at 6.7 µM
Out of some 320,000 compounds screened, about 560 (0.17%) were called active.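 Rule for the calls: active = inhibition above the campaign's mean inhibition across all tested compounds plus 3 SD (cut at about 9.5% in these data); inactive = the rest.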 For the sample, actives were picked, then their nearest neighbours and some compounds at random.
Answer with one of the outcomes given here: true for active, false for inactive

Query: Which outcome was assigned to "Cn1c(Cc2cccc3ccccc23)nnc1SCC(=O)N1CCN(c2cccc(Cl)c2)CC1" in this test?
Response: false

Query: Which outcome was assigned to "CC(C)CCn1cnc2c1c(=O)n(CC(=O)NC(N)=O)c(=O)n2Cc1ccccc1" in this test?
Response: false

Query: Which outcome was assigned to "COc1cc(OC)cc(-c2cc3nc(C4CCN(C(=O)OC(C)(C)C)CC4)cc(=O)n3[nH]2)c1" in this test?
Response: false

Query: Which outcome was assigned to "Nc1nc(SCC(=O)NN(c2ccccc2)c2ccccc2)n[nH]1" in this test?
Response: false

Query: Which outcome was assigned to CCn1ccnc1CNC(=O)CC1C(=O)NCCN1CCCc1ccccc1 (stereo unspecified) in this test?
Response: false

Query: Which outcome was assigned to "COc1cc(C(F)(F)F)c(C(=O)N(C)c2ccc(Cl)cc2)cn1" in this test?
Response: true

Query: Which outcome was assigned to "CC(C)(C)c1cc[n+](-c2[nH]c(=O)sc2/C=N/N=C(\[O-])c2ccccc2)cc1" in this test?
Response: false

Query: Which outcome was assigned to "CCN(CC)c1nc(-c2ccccc2)cc(C(F)(F)F)c1C#N" in this test?
Response: false

Query: Which outcome was assigned to CC(=O)Nc1ccccc1OC(C)C(=O)N1CCC(C)CC1 (stereo unspecified) in this test?
Response: false

Query: Which outcome was assigned to "COc1cccc(OC)c1CN(C)C(=O)c1cnccc1C(F)(F)F" in this test?
Response: false

Query: Which outcome was assigned to "Cc1ccc(Cn2c(C)c3cnn(CC(=O)NCc4ccccn4)c(=O)c3c2C)cc1" in this test?
Response: false

Query: Which outcome was assigned to CC(C(=O)c1ccc(-c2ccccc2)cc1)[n+]1cccc(Br)c1 (stereo unspecified) in this test?
Response: false

Query: Which outcome was assigned to "O=Cc1c(Nc2ccccc2Cl)nc2ccccn2c1=O" in this test?
Response: false

Query: Which outcome was assigned to CC1CC(C)(C)n2c(O)c(N=NC(N)=S)c3cccc1c32 (stereo unspecified) in this test?
Response: false

Query: Which outcome was assigned to "CCN(C(=O)COc1ccc(C(=O)c2ccccc2)cc1)c1ccccc1" in this test?
Response: false

Query: Which outcome was assigned to "COc1ccccc1NC(=O)COC(=O)COc1ccccc1F" in this test?
Response: false

Query: Which outcome was assigned to O=C(N=C1SC2CS(=O)(=O)CC2N1c1cc(Cl)ccc1Cl)C1CC1 (stereo unspecified) in this test?
Response: false

Query: Which outcome was assigned to "CSCC[C@H](NC(=O)N1CCn2c1nc1ccccc12)C(=O)NCc1ccc2c(c1)OCO2" in this test?
Response: false

Query: Which outcome was assigned to COc1ccc(-c2cc(=O)oc3cc(OC(C)C(=O)Nc4ccc(CN5CCOCC5)cc4)ccc23)cc1 (stereo unspecified) in this test?
Response: false

Query: Which outcome was assigned to "CC(C)(C)C(=O)NNC(=O)c1ccc(Oc2cc(Cl)cc(Cl)c2)o1" in this test?
Response: false

Query: Which outcome was assigned to "COc1ccc(/C=C2\SC(=S)N(CCC(=O)Nc3cccc(C(=O)O)c3)C2=O)cc1OC" in this test?
Response: false

---

- measured on: Serine/threonine-protein phosphatase 5 (Homo sapiens) (UniProt P53041)
- test method notes: PP5 phosphatase inhibitors, primary screen, biochemical, fluorescence (AID 1987);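 note: 0% = DMSO only and 100% = 100 µM cantharidin control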
- condition description: purified PP5c, OMFP substrate fluorescence; at 6.7 µM; hits give high values
Hit rate of the full screen: of about 320,000 compounds, about 560 (0.17%) were called active. This excerpt belongs to a sample that is enriched for actives.
quantity: inhibition (%)
Give your result in % as a bare value.

Query: Using the record for "Cc1cc(Cl)ccc1OCCCC(=O)NCc1ccccn1" , report its inhibition.
Response: 1.77

Query: Using the record for "COCCNC(=O)c1ccc2c(c1)ncn2-c1ccc(C)c(Cl)c1" , report its inhibition.
Response: -2.87

Query: Using the record for "CNc1nc(-c2ccccc2)cc(-c2ccccc2)n1" , report its inhibition.
Response: 3.18

Query: Using the record for "Cc1nnc(SCc2nc3ccccc3nc2C)s1" , report its inhibition.
Response: 12.1

Query: Using the record for "Cc1nnc(SCc2cc(=O)[nH]c(N3CCN(Cc4ccccc4)CC3)n2)s1" , report its inhibition.
Response: 1.51

Query: Using the record for "Cc1ccc(-n2nc(-c3ccco3)cc2C(=O)NCc2cccnc2)cc1" , report its inhibition.
Response: 2.97

Query: Using the record for "CC(C)OC(=O)c1sc2nc3c(cc2c1N)C(=O)CCC3" , report its inhibition.
Response: -4.25

Query: Using the record for "C/C(N)=C(/C#N)C(=O)COC(=O)c1cc(-c2ccc(C)cc2)nc2ccccc12" , report its inhibition.
Response: 3.74

Query: Using the record for "O=C1[C@H]2[C@@H](c3ccc(F)cc3)N3C(=O)N(c4ccc(C(F)(F)F)cc4)C(=O)[C@@]3(Cc3ccccc3)[C@H]2C(=O)N1C1CCCCC1" , report its inhibition.
Response: 5.23

Query: Using the record for "CCNC(=O)c1sccc1-n1cccc1" , report its inhibition.
Response: 0.46

Query: Using the record for "CC(C)(C)C(=O)Nc1c(Br)c(C2CC2)nn1-c1ccccc1" , report its inhibition.
Response: 0.27

---

Would you mind telling me the reported inhibition of each entry?
- measured on: Serine/threonine-protein phosphatase 5 (Homo sapiens)
- test method notes: PP5 phosphatase inhibitors, primary screen, biochemical, fluorescence (AID 1987);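 note: 0% = DMSO only and 100% = 100 µM cantharidin control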
- condition description: purified PP5c, OMFP substrate fluorescence; at 6.7 µM; hits give high values
Among all 320,000 compounds or so, about 560 (0.17%) were called active. The full list was thinned out, with actives kept by preference.
Give your result in % as a bare value.

Query: Hi! What's the reported inhibition for "COc1ccc(OC)c(C(=O)c2coc3ccc(OC)cc23)c1" on Serine/threonine-protein phosphatase 5 (Homo sapiens)?
Response: 3.44

Query: Hi! What's the reported inhibition for "O=C(Cc1ccccc1Cl)N1CCOCC1" on Serine/threonine-protein phosphatase 5 (Homo sapiens)?
Response: -1.76

Query: Hi! What's the reported inhibition for "COc1ccc2c(c1)C(=O)Nc1cc(Cl)ccc1N2" on Serine/threonine-protein phosphatase 5 (Homo sapiens)?
Response: -0.62

Query: Hi! What's the reported inhibition for "CC(C)(C)NC(=O)c1cccc(NC(=O)Cc2ccc(Br)cc2)c1" on Serine/threonine-protein phosphatase 5 (Homo sapiens)?
Response: 3.17

Query: Hi! What's the reported inhibition for CCC(C(=O)NCCC(C)C)N(Cc1ccccc1Cl)C(=O)c1snc(C(N)=O)c1N (stereo not drawn) on Serine/threonine-protein phosphatase 5 (Homo sapiens)?
Response: -2.16

Query: Hi! What's the reported inhibition for "N#C/C=C\Oc1ccc(Cl)cc1N" on Serine/threonine-protein phosphatase 5 (Homo sapiens)?
Response: -0.64

Query: Hi! What's the reported inhibition for "COc1ccc(OC)c(C(=O)c2ccc(C(=O)O)cc2)c1" on Serine/threonine-protein phosphatase 5 (Homo sapiens)?
Response: 10.3

Query: Hi! What's the reported inhibition for "COC(=O)c1ccccc1NC(=O)CSc1n[nH]c(-c2ccncc2)n1" on Serine/threonine-protein phosphatase 5 (Homo sapiens)?
Response: 2.98

---

- measured on: Serine/threonine-protein phosphatase 5 (Homo sapiens)
- test method notes: PP5 phosphatase inhibitors, primary screen, biochemical, fluorescence (AID 1987);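 note: 0% = DMSO only and 100% = 100 µM cantharidin control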
- condition description: purified PP5c, OMFP substrate fluorescence; at 6.7 µM
The campaign covered roughly 320,000 compounds. About 560 (0.17%) were called active.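 How the source made its calls: active means inhibition above the campaign's mean inhibition across all tested compounds plus 3 SD (cut at about 9.5% in these data); inactive means the rest.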 What follows is part of a selection rich in actives, with near analogues and random picks from the rest.
Answer with one of the outcomes given here: active, inactive

Query: Which outcome was assigned to "COc1ccc(S(=O)(=O)N2CCN(C(=O)c3cc(C)oc3C)CC2)cc1" in this test?
Response: inactive

Query: Which outcome was assigned to "Cn1c(=O)c2sccc2n(Cc2ccc(Br)cc2)c1=O" in this test?
Response: inactive

Query: Which outcome was assigned to "Nc1nc(Sc2ncccc2[N+](=O)[O-])n[nH]1" in this test?
Response: inactive

Query: Which outcome was assigned to "O=C(O)c1ccc(S(=O)(=O)N2CCC(Cc3ccccc3)CC2)cc1" in this test?
Response: inactive

Query: Which outcome was assigned to "O=[N+]([O-])c1cccc2ncccc12" in this test?
Response: active

Query: Which outcome was assigned to CC1Cc2cc(/C(O)=C3\C(=O)C(=O)N(Cc4cccnc4)C3c3ccccc3F)ccc2O1 (stereo unspecified) in this test?
Response: inactive

Query: Which outcome was assigned to "O=C(O)c1n[nH]nc1-c1ccccc1" in this test?
Response: active

Query: Which outcome was assigned to "CC(C)Cn1cnc2c1c(=O)n(CC(=O)NN)c(=O)n2Cc1ccccc1" in this test?
Response: inactive

Query: Which outcome was assigned to "O=c1[nH]c(-c2ccccc2)c(-c2ccccc2)[nH]1" in this test?
Response: inactive

Query: Which outcome was assigned to "Cn1cnnc1Sc1ccc(S(C)(=O)=O)cc1[N+](=O)[O-]" in this test?
Response: inactive

Query: Which outcome was assigned to CCN(CC(=O)NC1CCS(=O)(=O)C1)c1nc(-c2cccnc2)nc2ccccc12 (stereo unspecified) in this test?
Response: inactive
